- assay: qHTS Assay for Lipid Storage Modulators (AID 1519)
- setup.conditions: Drosophila S3 cells, BODIPY lipid droplet/cell ratio, laser cytometry; measured here: lipid channel max response; cells loaded with oleic acid
Records with an inconclusive call do not appear.
test.readout: max response (%)
Your answer should be a plain number; it is taken to be in %.

Bench note: what max response did NCCCCC(NC(CCc1ccccc1)C(=O)O)C(=O)N1CCCC1C(=O)O (stereo not given) show?
24.7

For the compound "COc1ccc2c(=O)c(CC(=O)O)coc2c1" , what max response is on record?
14.8

Given the compound CC(=O)OCC(=O)C1CCC2C3CC=C4CC(O)CC[C@@]4(C)C3CC[C@]12C (stereo not given in full) , what is its reported max response?
38.3

Which max response is reported for this compound? CC(C)C1COc2cc3oc(=O)ccc3cc2O1 (stereo not given)
13.7

I am curious: what max response value has been reported for "CCN1CCN(C(=O)N[C@H](C(=O)N[C@@H]2C(=O)N3[C@@H]2SC(C)(C)[C@@H]3C(=O)O)c2ccccc2)C(=O)C1=O" ?
-7.68

====

- target.under.test: Rap guanine nucleotide exchange factor 3 (Homo sapiens)
- assay: Counterscreen qHTS for antagonist of cAMP-regulated guanine nucleotide exchange factor 3 (EPAC1) (AID 1645888);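 also: fluorescence loss as bound BODIPY-GDP is released from Rap1B; % of control where 0% means no effect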
- setup.conditions: Rap1B-BODIPY-GDP nucleotide exchange, fluorescence; series mostly up to 154 µM
Results filed as inconclusive are left out. Active and inactive are the calls of the source. The call rests on the fitted dose curve; in most records, active means well fitted inhibition curve with a large enough effect; inconclusive means small, poorly fitted or top-dose-only effect; inactive means no such curve, though single readings can be large or run the other way.
test.readout: activity change, negative = inhibition

Use these answered entries as a reference point.
>>> print(df.to_string())
                                   molecule                            test_readout                     test_result
0  Cc1ccc(O)c(N=Cc2cc(Cc3ccccc3)cc([N+](=O)[O-])c2O)c1  activity change, negative = inhibition                        inactive
1  c1ccc(CN(Cc2ccccc2)c2c3c(nc4ncnn24)CCC3)cc1  activity change, negative = inhibition                        inactive
2  O=C(O)c1ccccc1NS(=O)(=O)c1ccc(NN=Cc2ccc(F)cc2)c([N+](=O)[O-])c1  activity change, negative = inhibition                        inactive
3  CCc1noc(C)c1C(=O)N1CCCSC1=Nc1ccccc1C(C)C  activity change, negative = inhibition                        inactive
4  Cc1ccc(NC(=O)CN(C)C(=O)COC(=O)C2=COCCO2)cc1  activity change, negative = inhibition  -1.81% [at 30.8 µM] (inactive)
5         Cc1c(Br)c(=O)oc2c(Br)c(O)c(O)cc12  activity change, negative = inhibition   21.7% [at 30.8 µM] (inactive)

Please give the measured activity change, negative = inhibition for this molecule: "COc1cc(NC(=S)NCCC(c2ccccc2)c2ccccc2)cc(OC)c1"
11% [at 30.8 µM] (inactive)

Which activity change, negative = inhibition value belongs to CCn1c(C(=O)N2CCCC(C(=O)N3CCN(c4cc(C)ccc4C)CC3)C2)cc2sccc21 (stereo not given) ?
inactive

Which activity change, negative = inhibition value is on record for Cc1cn2c(=O)cc(COC(=O)c3ccc(NC(=O)C(C)Oc4ccccc4)cc3)nc2s1 (stereo not given) ?
inactive

For the molecule "COc1ccc(OC)c(NC(=O)CN(C)CCOc2ccc(Br)cc2)c1" , what activity change, negative = inhibition is on record?
inactive
